The values you see were collected from PubChem BioAssay AID1645864.

Target: Ubiquitin carboxyl-terminal hydrolase 17-like protein 5 (Homo sapiens)
Experiment: ubiquitin-specific protease 17 DUB inhibitors, concentration-effect assay, cell-free, verification of initial screening actives (AID 1645864)
Settings: purified USP17, ubiquitin-rhodamine cleavage fluorescence, 3 h
Calls of active or inactive are those of the source.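 Rule for the calls: active = maximal inhibition of USP17 at or above 30% in the confirmation dose-response, a value not among the printed readouts; inactive = the rest.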
Output constraint: value belongs to active, inactive

These solved cases illustrate the format of a correct answer.
COMPOUND	TARGET SYSTEM	DISCRETE LABEL
CN1CCN(c2ncnc3c2oc2ccc(Cl)cc23)CC1	Ubiquitin carboxyl-terminal hydrolase 17-like protein 5 (Homo sapiens)	inactive
CCCC[C@@H](C)/C=C(C)/C=C(\C)C(=O)NC1=C[C@](O)(/C=C/C=C/C=C/C(=O)NC2=C(O)CCC2=O)[C@@H]2O[C@@H]2C1=O	Ubiquitin carboxyl-terminal hydrolase 17-like protein 5 (Homo sapiens)	active
CC(C)(C)c1ccc(Cn2nnc3c(=O)[nH]c(C4CCN(S(=O)(=O)c5ccc(S(=O)(=O)NC6CC6)cc5)CC4)nc32)cc1	Ubiquitin carboxyl-terminal hydrolase 17-like protein 5 (Homo sapiens)	active

Prompt: Status in this test for COC(=O)CC1CC23OC2(C(=O)c2c(O)cccc2C3=O)C(C)O1 (stereo not given) ?
Completion: active

Prompt: Assay outcome for COc1ccc(-c2nc3n(n2)C(CC(=O)Nc2cccc4ccccc24)C(=O)N3)cc1 (stereo not given) : what was it?
Completion: active

Prompt: How did this test come out for Cc1ccc(C)c(NS(=O)(=O)c2cc(-c3cnc(C4CC4)o3)ccc2C)c1 ?
Completion: active

Prompt: Hey, what did the test say about O=C(NCC(c1cccnc1)N1CCc2ccccc2C1)C(=O)Nc1ccc2c(c1)OCO2 (stereo not given) ?
Completion: active

Prompt: // outcome(item) with item = CC(NC(=O)c1ccccc1)c1nc2ccccc2n1CC(=O)Nc1ccc2c(c1)OCO2 (stereo not given)
Completion: active

Prompt: Please indicate how the test categorized CSc1ccccc1NC(=O)c1ccc(-n2cccn2)nn1 .
Completion: active

Prompt: For CC1=C(C)C(c2c(-c3ccc(C)cc3)[nH]c3ccccc23)N(C(C)(C)C)C1=O (stereo not given) , which call appears in the assay record?
Completion: active

Prompt: Called result for Cc1nc(C(=O)NC2(O)C(=O)c3ccccc3C2=O)cs1
Completion: active

* * *

Notes on IC50 obtained with UniProt A8MUK1.

COMPOUND	IC50
O=S1(=O)NC(=NCCc2ccc(Cl)cc2Cl)c2ccccc21	36.4 µM
Cc1ccc(Nc2nc(C(=O)NCc3ccc4c(c3)OCO4)cc3occc23)cc1Cl	28.1 µM

Prompt: Entry Cc1ccc(CNC(=O)Cn2cnc3c(cnn3-c3cccc(Cl)c3)c2=O)cc1 , system UniProt A8MUK1: what IC50 was measured?
Completion: 1.49 µM

* * *

Target: Ubiquitin carboxyl-terminal hydrolase 17-like protein 5 (Homo sapiens) (UniProt A8MUK1)
Sequence (A8MUK1 whole entry, looked up): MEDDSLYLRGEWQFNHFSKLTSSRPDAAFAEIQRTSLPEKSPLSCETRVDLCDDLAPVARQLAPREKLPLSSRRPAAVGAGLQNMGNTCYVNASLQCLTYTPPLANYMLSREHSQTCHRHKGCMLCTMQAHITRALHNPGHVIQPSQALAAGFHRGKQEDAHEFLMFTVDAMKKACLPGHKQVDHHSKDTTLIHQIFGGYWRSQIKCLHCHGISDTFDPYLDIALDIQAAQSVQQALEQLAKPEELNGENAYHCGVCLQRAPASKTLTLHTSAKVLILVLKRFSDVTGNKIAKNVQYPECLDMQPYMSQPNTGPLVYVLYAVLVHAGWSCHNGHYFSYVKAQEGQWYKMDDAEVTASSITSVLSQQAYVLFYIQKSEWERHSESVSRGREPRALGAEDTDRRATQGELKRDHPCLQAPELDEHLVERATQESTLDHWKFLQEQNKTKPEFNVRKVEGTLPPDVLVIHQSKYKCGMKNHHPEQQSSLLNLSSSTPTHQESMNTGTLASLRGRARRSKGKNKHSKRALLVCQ
Test: ubiquitin-specific protease 17 DUB inhibitors, concentration-effect assay, cell-free, verification of initial screening actives (AID 1645864)
Settings: purified USP17, ubiquitin-rhodamine cleavage fluorescence, 3 h
Activity calls are given as the source filed them.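 The calls were made as follows: active = maximal inhibition of USP17 at or above 30% in the confirmation dose-response, a value not among the printed readouts; inactive = the rest.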
Would you mind answering with one of these outcomes? 1 = active, -1 = inactive

COMPOUND	DISCRETE LABEL
CCOC(=O)c1sc2nc(CC(=O)OC)nc(NCc3ccco3)c2c1C	-1
O=C(/C=C/c1ccc2c(c1)OCO2)Nc1nc2c(s1)COCC2	1
COc1cccc(-c2cc(C(=O)Nc3cc(C)n(Cc4ccc(Cl)cc4)n3)no2)c1	1

Prompt: I would be grateful if you could indicate the recorded call for O=C(Cn1c(=O)n(-c2ccccc2)c(=O)c2ccc(C(=O)NCc3ccc4c(c3)OCO4)cc21)NCCC1=CCCCC1 .
Completion: 1

Prompt: Can you look up the reported call for CCc1nc2c(NC(=O)Nc3cccc(C(=O)OC)c3)cccn2n1 for me?
Completion: -1

Prompt: Please share the test call associated with Cc1ccc(-c2nc(Cn3nnc(-c4nc(-c5ccccn5)no4)c3C)c(C)o2)cc1 .
Completion: -1

Prompt: Lab log entry: COc1cccc(NC(=O)C2C3C=CC4(O3)C2C(=O)N(CCc2ccccc2Cl)C4C(=O)NC2CCCCC2)c1 (centres undefined) — outcome as called in the assay?
Completion: 1

Prompt: Write down the call the test reported for this compound. Item: COc1cccc(N2CCN(C(=O)c3cc(NC(C)=O)cc4nc(C)ccc34)CC2)c1
Completion: -1

Prompt: Per the records of this test, what outcome belongs to COc1cccc(N2CCN(C(=O)Nc3ccc4c(c3)NC(=O)CO4)CC2)c1 ?
Completion: 1

* * *

Target: Ubiquitin carboxyl-terminal hydrolase 17-like protein 5 (Homo sapiens) (UniProt A8MUK1)
Assay: ubiquitin-specific protease 17 DUB inhibitors, concentration-effect assay, cell-free, verification of initial screening actives (AID 1645864)
Conditions: purified USP17, ubiquitin-rhodamine cleavage fluorescence, 3 h
Active and inactive are the calls of the source.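 The calls were made as follows: active = maximal inhibition of USP17 at or above 30% in the confirmation dose-response, a value not among the printed readouts; inactive = the rest.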
Permitted responses: True (active), False (inactive)

COMPOUND	TARGET SYSTEM	DISCRETE LABEL
COc1ccc(N(CC(=O)NC2CCCCC2)C(=O)c2ccc(-c3ccccc3)[nH]2)cc1OC	Ubiquitin carboxyl-terminal hydrolase 17-like protein 5 (Homo sapiens) (UniProt A8MUK1)	True
CCN1C(=O)c2cccnc2Sc2cc(NC(=O)c3ccc(Cl)s3)ccc21	Ubiquitin carboxyl-terminal hydrolase 17-like protein 5 (Homo sapiens) (UniProt A8MUK1)	False

Now look at this one.
Prompt: What did this assay record as the result for CCc1nnc(NC(=O)c2nnn(-c3ccccc3Cl)c2C)s1 ?
Completion: False

* * *

Entries annotated with measured IC50
Molecular target: UniProt A8MUK1
Experiment: ubiquitin-specific protease 17 DUB inhibitors, concentration-effect assay, cell-free, verification of initial screening actives (AID 1645864)
Conditions: purified USP17, ubiquitin-rhodamine cleavage fluorescence, 3 h
The source made the active and inactive calls.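 The calls were made as follows: active = maximal inhibition of USP17 at or above 30% in the confirmation dose-response, a value not among the printed readouts; inactive = the rest.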

COMPOUND	IC50
CCOc1ccc(NC(=O)Cn2cnc(S(=O)(=O)N3CCc4ccccc43)c2)cc1	23.6 µM
CC(=O)c1ccc(NC(=O)c2nc3ccccc3nc2N2CCOCC2)cc1	> 50 µM (inactive)
COc1cc(-c2nc(C(N)=O)c3[nH]c(=O)n(-c4ccc(C)cc4)c3n2)cc(OC)c1OC	1.96 µM
CCCCCC(=O)N1c2ccccc2NC2=C(C(=O)CC(c3ccc(C(C)(C)C)cc3)C2)C1c1ccncc1 (stereo not given)	4.7 µM
COc1cccc(-n2cnc3cc(C(=O)NC4CC4)ccc3c2=O)c1	15 µM
Cc1ccc(C(=O)NCc2ccc(C(=O)Nc3cccc(C)c3)o2)cc1	32.5 µM
O=C(CN(Cc1ccc(Cl)cc1)S(=O)(=O)c1ccc(Cl)cc1)N1CCOCC1	> 50 µM (inactive)
COc1cccc(NC(=O)c2ccc3noc(-c4ccc(Cl)cc4)c3c2)c1	37.4 µM

Prompt: I am curious: what IC50 value has been reported for CCc1ccc(C2c3c(oc4ccccc4c3=O)C(=O)N2c2nncs2)cc1 (stereo not given) ?
Completion: > 50 µM (inactive)

Prompt: Record request: IC50 value, item N#Cc1ccccc1Cn1c(=O)n(Cc2ccco2)c(=O)c2ccccc21
Completion: 36.6 µM

* * *

Target: Ubiquitin carboxyl-terminal hydrolase 17-like protein 5 (Homo sapiens) (UniProt A8MUK1)
Test: ubiquitin-specific protease 17 DUB inhibitors, concentration-effect assay, cell-free, verification of initial screening actives (AID 1645864)
Settings: purified USP17, ubiquitin-rhodamine cleavage fluorescence, 3 h
Activity calls are given as the source filed them.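 Rule for the calls: active = maximal inhibition of USP17 at or above 30% in the confirmation dose-response, a value not among the printed readouts; inactive = the rest.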
Respond using exactly one of the listed classes: active, inactive

Here's what some known entries look like.
COMPOUND	DISCRETE LABEL
CCN(CCCNC(=O)c1ccc(Cn2c(=O)[nH]c3ccccc3c2=O)cc1)c1ccccc1	active
Cc1c(Cl)cccc1NC(=O)Cn1ccc2ccccc2c1=O	active

Prompt: Called result for Cc1ccc(S(=O)(=O)N2CCCCC2)cc1NC(=O)Cc1cccc(F)c1
Completion: inactive

Prompt: Recorded call for O=C1c2ccccc2NC2(C(=O)Nc3ccc(Br)cc32)N1c1ccccc1 (stereo not given) ?
Completion: inactive

Prompt: Which result was noted for this compound in the test: Cc1cc(O)c2c3c(c(O)cc2c1)C(=O)c1c(O)cccc1C3=O
Completion: active

Prompt: Which outcome was entered for the compound CSc1cccc(NC(=O)COc2cccc3ccccc23)c1 in this test?
Completion: active

Prompt: Give the logged outcome of this assay for the following compound: CC[C@@]1(O)C[C@H](OC2CC(N(C)C)C(OC3CC(O)C(OC4CCC(=O)C(C)O4)C(C)O3)C(C)O2)c2c(cc3c(c2O)C(=O)c2c(O)ccc(O)c2C3=O)[C@H]1C(=O)OC (stereo not given in full)
Completion: active

Prompt: Name the outcome recorded for C/C1=C/CC(O)/C=C/C(C)C(O)C(C)/C=C(\C)C(=O)c2c(O)c(C)cc3c2C(=O)C(Cl)=C(NC(=O)\C=C/C=C/C=C\C(C)C(O)CC1=O)C3=O (stereo not given) in the assay.
Completion: active

Prompt: Entry Clc1ccccc1CSc1nnc(C2CCCCC2)n1Cc1ccccc1 : call = ?
Completion: active

Prompt: Dear colleague, could you share the recorded outcome for O=C(NCCn1ccc2ccccc21)c1cc2ccccc2oc1=O when you have a moment?
Completion: active
